system: CA-I/72 T. cruzi; experiment: Phenotypic high-content imaging assay, intracellular T. cruzi amastigotes in C2C12 host cells; assay type: cell-based, Trypanosoma cruzi; details: Trypanosoma cruzi; intracellular amastigotes in C2C12, 72 h, 10-point 3-fold dose response in duplicate, +/- SE; read-out: EC50 CA-I/72 T. cruzi
pEC50: −log10 of the molar value.
Label rule, in plain words: pEC50 of 8 and up is Satisfied, under 8 is Not satisfied.

* N#Cc1ccc(Cn2cncc2CN2CCN(c3cccc(Cl)c3)C(=O)C2)cc1Oc1ccccc1 | Not satisfied
* O=P(O)(O)C(NC1CCCCCC1)P(=O)(O)O [Incadronate Disodium, incadronate disodium] | Not satisfied
* COc1ccccc1N1CCN(CCCCn2c(=O)sc3cc(CCN4CCC(C(=O)c5ccc(F)cc5)CC4)ccc32)CC1 | Not satisfied
* C=CC(=O)N1CC[C@@H](Oc2nc(Nc3ccc(N4CCC(N5CCN(C)CC5)CC4)cc3)c(C(N)=O)nc2CC)C1 | Satisfied
* Cc1cccc2nc3cccc(C(=O)NCCNCCNCCNC(=O)c4cccc5nc6cccc(C)c6nc45)c3nc12 | Satisfied
* C=C(NNC(=S)NNC(=S)Nc1ccccc1Cl)c1ccccn1 | Satisfied
